# credit: PubChem BioAssay (NCI)

Test system: SF-268 CNS
Assay: NCI-60 one-dose screen, 48 h (100 = growth as untreated, 0 = no growth, -100 = all killed)
Settings: 10 µM unless noted
Compounds without any hit were thinned out: in the full panel of roughly 83,000, 20% have a hit.

[
  {
    "compound": "CC(C)(C)c1ccc(Cn2c(-c3nonc3N)nc3ccccc32)cc1",
    "growth, %": 75.6
  },
  {
    "compound": "CSC(=S)N/N=C(\\C)c1ccccn1",
    "growth, %": 17.3
  },
  {
    "compound": "Clc1cc(Br)ccc1-c1ccc(CNCC2CCNCC2)o1",
    "growth, %": 45
  },
  {
    "compound": "CCN(C)CCCOc1ccc(/C(=C(\\C)Cc2cccc(OC)c2)c2ccc(OC(C)=O)cc2)cc1",
    "growth, %": 94.1
  },
  {
    "compound": "CSCCC1NC(=O)C(C(C)=Nc2ccccc2)=C1O (stereo not given)",
    "growth, %": 111
  }
]

###

Tested on: SNB-75 CNS
Experiment: NCI-60 one-dose screen, 48 h (100 = growth as untreated, 0 = no growth, -100 = all killed)
Details: 10 µM unless noted
The panel holds about 83,000 compounds, 20% with a hit somewhere; the sample as a whole holds those more often.
We use 80% as the dividing line for growth: on or above the line is Fulfilled, below is Not fulfilled.

[
  {
    "compound": "COCCCNCC(=O)Nc1c(C)cccc1C",
    "target of assay": "SNB-75 CNS",
    "group": "Fulfilled"
  },
  {
    "compound": "Cc1ccc(NC(=O)c2nc(S(C)(=O)=O)oc2-c2ccc(F)cc2)cc1Nc1ccc2ncn(C)c(=O)c2c1",
    "target of assay": "SNB-75 CNS",
    "group": "Fulfilled"
  },
  {
    "compound": "O=C(Nc1ccc(Oc2ccc(Nc3nc4ccccc4s3)cc2)cc1)Nc1ccc(Cl)c(C(F)(F)F)c1",
    "target of assay": "SNB-75 CNS",
    "group": "Not fulfilled"
  },
  {
    "compound": "COc1ccc(/C(=C\\c2cc(OC)c(OC)c(OC)c2)C(=O)N2CCNCC2)cc1",
    "target of assay": "SNB-75 CNS",
    "group": "Fulfilled"
  },
  {
    "compound": "CCCCCCCCCCCCCC(=S)NCCCC[C@H](NC(=O)OCc1ccccc1)C(=O)Nc1ccccc1",
    "target of assay": "SNB-75 CNS",
    "group": "Not fulfilled"
  },
  {
    "compound": "CCCCCCCCCCCCCCC(C(=O)OCC)C(=O)OCC",
    "target of assay": "SNB-75 CNS",
    "group": "Fulfilled"
  },
  {
    "compound": "CC(C)CC(NC(=O)C(CCCN=C(N)N)NC(=O)OCc1ccccc1)C(=O)NC(CNC(=O)/C=C/c1ccccc1)C(C)C (stereo unspecified)",
    "target of assay": "SNB-75 CNS",
    "group": "Fulfilled"
  },
  {
    "compound": "Fc1ccc2c(CN3CCO[C@H](COc4cccc(Cl)c4)C3)c[nH]c2c1",
    "target of assay": "SNB-75 CNS",
    "group": "Not fulfilled"
  },
  {
    "compound": "CCCCN(CCCC)CCC(=O)c1ccc(OC)c2ccccc12",
    "target of assay": "SNB-75 CNS",
    "group": "Fulfilled"
  },
  {
    "compound": "Nc1ncnc2c1N=C(c1ccc(F)cc1)CC(c1sc(Cl)nc1Cl)N2 (stereo unspecified)",
    "target of assay": "SNB-75 CNS",
    "group": "Not fulfilled"
  }
]

###

Test system: SNB-75 CNS
Experiment: NCI-60 one-dose screen, 48 h (100 = growth as untreated, 0 = no growth, -100 = all killed)
Conditions: 10 µM unless noted
Protocol: Growth inhibition of the SNB-75 human tumor cell line is measured as a screen for anti-cancer activity. Cells are grown in 96 well plates and exposed to the test compound for 48 hours. Compounds are tested at a single concentration, which is 10^-5 M for most compounds. The reported endpoint is percent growth (GI% or GIPRCNT), where numbers from 0 - 100% represent growth inhibition, and numbers from -100% - 0 represent cell death. For example, a value of 40 represents 60% growth inhibition. […]
About 83,000 compounds went through this panel and 20% of them were active in at least one assay; those are over-represented in the sample as a whole.
Parameter: growth. Scope: all listed entries.

[
  {
    "molecule": "COc1ccc(C2=CC(c3ccc(OC)cc3Br)N3C=CSC3=N2)cc1 (stereo not given)",
    "growth, %": 63.7
  },
  {
    "molecule": "Nc1nc(N)c2cc(CNc3ccc(Cl)c(Cl)c3)ccc2n1",
    "growth, %": 40.1
  },
  {
    "molecule": "Oc1ccc(-c2cnc(-c3ccccc3)[nH]2)c(O)c1",
    "growth, %": 94.2
  },
  {
    "molecule": "N=c1n(Cc2ccccc2)c(N)cc(=O)n1Cc1ccccc1",
    "growth, %": 36.6
  },
  {
    "molecule": "CCCCCCCCCC1=NC(C)(C)CN1C(C)(C)CO",
    "growth, %": 102
  },
  {
    "molecule": "Cc1nc2ccc(Nc3nc(Cl)nc(N4CCOCC4)n3)cc2n1Cc1ccccc1",
    "growth, %": 51.2
  },
  {
    "molecule": "[O-]/[N+](=C\\c1ccccc1)CC1(O)CCCCC1",
    "growth, %": 81.1
  },
  {
    "molecule": "CCN(CC)CCNc1c(C)cc(CO)c(Cl)c1C",
    "growth, %": 90.2
  },
  {
    "molecule": "O=C1c2ccccc2C2N1CCC1CCc3ccccc3N12 (stereo not given)",
    "growth, %": 94.3
  },
  {
    "molecule": "COc1ccc(NC(=O)/C=C/c2ccc(Cl)c(Cl)c2)cn1",
    "growth, %": 102
  },
  {
    "molecule": "COc1cc2c(cc1C)NC(=O)/C2=C\\c1c[nH]c2ccccc12",
    "growth, %": 37.9
  },
  {
    "molecule": "COc1cc(Cn2c(-c3ccccc3)cc3c2-c2oncc2CC3)cc(OC)c1OC",
    "growth, %": -17.3
  },
  {
    "molecule": "O=C1C2=C(C(=O)c3c(O)ccc(O)c31)N(c1ccc(N3CCOCC3)nc1)Cc1ccccc1O2",
    "growth, %": -19.8
  },
  {
    "molecule": "CNCc1cccc2c1OCCOCCOCCC(C)S(=O)(=O)c1ccc(cc1)-c1cnc(N)c(n1)C(=O)N2 (stereo not given)",
    "growth, %": 10.5
  },
  {
    "molecule": "CCN(CC)Cc1cc(Nc2ccnc3cc(Cl)ccc23)cc(-c2ccc(Cl)cc2)c1O",
    "growth, %": -35.9
  },
  {
    "molecule": "CC1(C)CC[C@]2(C(=O)N3CCNCC3)CC[C@]3(C)C(=CC[C@@H]4[C@@]5(C)CCC(=O)C(C)(C)[C@@H]5CC[C@]43C)[C@@H]2C1",
    "growth, %": 91.6
  },
  {
    "molecule": "N#Cc1c(NN)n(C2OC(CO)C(O)C2O)c2ncnc(N)c12 (stereo not given)",
    "growth, %": 35.2
  },
  {
    "molecule": "COc1ccc(-c2cn(-c3cccc(C(=O)/C=C/c4ccc(O)c(OC)c4)c3)c(=O)[nH]2)cc1",
    "growth, %": 1.36
  },
  {
    "molecule": "COc1cc(OC)cc(-c2n/c(=C\\c3c(O)[nH]c4ccc(Cl)cc34)cc3c2=Nc2ccccc2-3)c1",
    "growth, %": 93.7
  },
  {
    "molecule": "O=C(Nc1cnc(C(F)(F)F)cn1)c1cc(Cl)ccc1O",
    "growth, %": -20.4
  },
  {
    "molecule": "O=C(/C=C/c1cn(-c2ccccc2)nc1-c1cccc(Nc2ccnc3cc(Cl)ccc23)c1)c1ccc2c(c1)OCO2",
    "growth, %": 101
  },
  {
    "molecule": "CCOC(=O)c1ccccc1SC(C[N+](=O)[O-])c1ccccc1 (stereo not given)",
    "growth, %": 85.1
  },
  {
    "molecule": "CCOC(=O)c1c(NC(=O)c2ccccc2)sc2c(O)c(CN(CC)CC)ccc12",
    "growth, %": -26.2
  },
  {
    "molecule": "CCN(C)CCCOc1ccc(/C(=C(\\C)Cc2cccc(OC)c2)c2ccc(OC(C)=O)cc2)cc1",
    "growth, %": 81.7
  },
  {
    "molecule": "Cc1ccc(CSCc2ccc(C(=O)NC3CC3)o2)cc1",
    "growth, %": 86
  }
]
